Consider the following compounds; for each one, report its HAI Titer EC>90.
Molecular target: FimH (Escherichia coli)
Construct: endogenous in cells; host or cells: type 1 piliated uropathogenic E. coli (UPEC)
Sequence (P08191 22-300): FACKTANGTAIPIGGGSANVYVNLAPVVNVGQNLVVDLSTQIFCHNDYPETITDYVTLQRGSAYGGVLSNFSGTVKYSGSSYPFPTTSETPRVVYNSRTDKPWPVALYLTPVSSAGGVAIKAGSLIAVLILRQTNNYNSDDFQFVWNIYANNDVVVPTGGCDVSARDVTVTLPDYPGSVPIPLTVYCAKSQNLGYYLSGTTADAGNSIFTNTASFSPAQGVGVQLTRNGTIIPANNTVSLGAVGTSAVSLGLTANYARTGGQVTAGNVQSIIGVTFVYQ
Assay: Hemagglutination inhibition (HAI) assay, guinea pig red blood cells
Assay type: cell-based, E. coli
Details: concentration inhibiting >90% hemagglutination of guinea pig red blood cells
Number in µM, nothing else.

Query :: # get_value(readout= HAI Titer EC>90, system= FimH (Escherichia coli)) for Cc1cc(-c2ccc3ccn(CCN(C)C)c(=O)c3c2)ccc1O[C@H]1O[C@@H](CO)[C@@H](O)[C@H](O)[C@H]1O
Result :: 0.012

Query :: # get_value(readout= HAI Titer EC>90, system= FimH (Escherichia coli)) for Cc1cc(-c2ccc3ccn(CC(=O)N4CCN(C)CC4)c(=O)c3c2)ccc1O[C@H]1O[C@@H](CO)[C@@H](O)[C@H](O)[C@H]1O
Result :: 0.008

Query :: # get_value(readout= HAI Titer EC>90, system= FimH (Escherichia coli)) for CNC(=O)c1sc(-c2ccc(O[C@H]3O[C@@H](CO)[C@@H](O)[C@H](O)[C@H]3O)c(C)c2)cc1NC(N)=O
Result :: 0.024

Query :: # get_value(readout= HAI Titer EC>90, system= FimH (Escherichia coli)) for Cc1cc(-c2ccc3ccn(CC(=O)O)c(=O)c3c2)ccc1O[C@H]1O[C@@H](CO)[C@@H](O)[C@H](O)[C@H]1O
Result :: 0.016

Query :: # get_value(readout= HAI Titer EC>90, system= FimH (Escherichia coli)) for Cc1cc(-c2ccc3ccn(CC(=O)NCCN)c(=O)c3c2)ccc1OC1OC(CO)C(O)C(O)C1O (stereo not shown)
Result :: 0.016

Query :: # get_value(readout= HAI Titer EC>90, system= FimH (Escherichia coli)) for CNC(=O)c1cccc(-c2ccc([C@H](O)C3OC(CO)C(O)C(O)C3O)c(C)c2)c1 (single isomer, unassigned) [Example 18B]
Result :: 6.000

Query :: # get_value(readout= HAI Titer EC>90, system= FimH (Escherichia coli)) for COC(=O)Cn1ccc2ccc(-c3ccc(O[C@H]4O[C@@H](CO)[C@@H](O)[C@H](O)[C@H]4O)c(C)c3)cc2c1=O
Result :: 0.006

Query :: # get_value(readout= HAI Titer EC>90, system= FimH (Escherichia coli)) for Cc1nnc(-c2ccc(-c3ccc(O[C@H]4O[C@@H](CO)[C@@H](O)[C@H](O)[C@H]4O)c(C)c3)cc2)o1
Result :: 0.062

Query :: # get_value(readout= HAI Titer EC>90, system= FimH (Escherichia coli)) for Cc1cc(-c2ccc3cc[nH]c(=O)c3c2)ccc1O[C@H]1O[C@@H](CO)[C@@H](O)[C@H](O)[C@H]1O
Result :: 0.030

Query :: # get_value(readout= HAI Titer EC>90, system= FimH (Escherichia coli)) for Cc1cc(-c2ccc3ccn(CC(=O)Nc4ccncc4)c(=O)c3c2)ccc1O[C@H]1O[C@@H](CO)[C@@H](O)[C@H](O)[C@H]1O
Result :: 0.001

Query :: # get_value(readout= HAI Titer EC>90, system= FimH (Escherichia coli)) for Cc1cc(-c2ccc3ccn(CC(=O)Nc4cccnc4)c(=O)c3c2)ccc1O[C@H]1O[C@@H](CO)[C@@H](O)[C@H](O)[C@H]1O
Result :: 0.001

Query :: # get_value(readout= HAI Titer EC>90, system= FimH (Escherichia coli)) for Cc1cc(-c2cccc(C(=O)Nc3cccnc3)c2)ccc1O[C@H]1O[C@@H](CO)[C@@H](O)[C@H](O)[C@H]1O
Result :: 0.032

Query :: # get_value(readout= HAI Titer EC>90, system= FimH (Escherichia coli)) for CNC(=O)c1cccc(-c2ccc([C@@H](O)C3OC(CO)C(O)C(O)C3O)c(C)c2)c1 (single isomer, unassigned) [Example 18A]
Result :: 0.031
